Recorded melting point, one value per entry.

Consider CN(C)CC1CC(c2ccc(S(C)(=O)=O)cc2)=C(c2cccc(O)c2)C1=O.Cl (centres unmarked) . Its measured melting point is 162 to 164 °C

So for CN(C)CC1CC(c2ccc(S(C)(=O)=O)cc2)=C(c2ccc(C(C)(C)C)cc2)C1=O.Cl (centres unmarked) , the logged melting point turned out to be 182 to 184 °C

For this molecule ( CN(C)CC1CC(c2ccc(S(C)(=O)=O)cc2)=C(c2cccc(C(F)(F)F)c2)C1=O.Cl (centres unmarked) ), measured melting point is 152 to 154 °C

Entry CN(C)CC1CC(c2ccc(S(C)(=O)=O)cc2)=C(c2cccc(Cl)c2)C1=O.Cl (centres unmarked) , melting point reported as 156 to 158 °C

Record CN(C)CC1CC(c2ccc(S(C)(=O)=O)cc2)=C(c2ccc3ccccc3c2)C1=O.Cl (centres unmarked) . Reported melting point: 163 to 165 °C

melting point reported for this molecule CN(C)CC1CC(c2ccc(S(C)(=O)=O)cc2)=C(c2cccc(F)c2)C1=O.Cl (centres unmarked) : 154 to 158 °C

New cases:
# molecule CCOc1cccc(C2=C(c3ccc(S(C)(=O)=O)cc3)CC(CN(C)C)C2=O)c1.Cl (centres unmarked) ; its melting point = 149 to 151 °C

Data point: CN(C)CC1CC(c2ccc(S(C)(=O)=O)cc2)=C(c2ccc(S(C)(=O)=O)cc2)C1=O.Cl (centres unmarked) ; melting point = 157 to 159 °C

// melting point lookup, molecule = CC(C)c1cccc(C2=C(c3ccc(S(C)(=O)=O)cc3)CC(CN(C)C)C2=O)c1.Cl (centres unmarked) , result: 131 to 133 °C

// melting point lookup, molecule = CN(C)CC1CC(c2ccc(S(C)(=O)=O)cc2)=C(c2ccc3c(c2)OCO3)C1=O.Cl (centres unmarked) , result: 149 to 152 °C

Recorded result, CN(C)CC1CC(c2ccc(S(C)(=O)=O)cc2)=C(c2ccc(O)cc2)C1=O.Cl (centres unmarked) , melting point: 98 to 100 °C

For record Cc1cccc(C2=C(c3ccc(S(C)(=O)=O)cc3)CC(CN(C)C)C2=O)c1.Cl (centres unmarked) the listed melting point is 148 to 150 °C

Query Cc1ccc(C2=C(c3ccc(S(C)(=O)=O)cc3)CC(CN(C)C)C2=O)cc1C.Cl (centres unmarked) yields melting point of 139 to 142 °C

CN(C)CC1CC(c2ccc(S(C)(=O)=O)cc2)=C(c2cc(Cl)cc(Cl)c2)C1=O.Cl (centres unmarked) has a reported melting point of 160 to 163 °C

Short answer for COc1cccc(C2=C(c3ccc(S(C)(=O)=O)cc3)CC(CN(C)C)C2=O)c1.Cl (centres unmarked) : melting point was 154 to 157 °C

The measured melting point associated with Cc1cc(C2=C(c3ccc(S(C)(=O)=O)cc3)CC(CN(C)C)C2=O)ccc1F.Cl (centres unmarked) reads 95 to 98 °C (dec.)

# molecule Cc1ccc(C2=C(c3ccc(S(C)(=O)=O)cc3)CC(CN(C)C)C2=O)cc1.Cl (centres unmarked) ; its melting point = 127 to 129 °C
